Experiment: In vitro human microsomal stability assay
Assay type: in vitro ADME
Conditions: human, microsomes, 0.5 h, 0.5 μM, pH 7.4
measurementKind: HUMAN MICROSOMAL STABILITY (% REMAINING AFTER 30 MINUTES) (%)

> print(dat)
                                   molecule  experimentalvalue
1  O[C@H](c1ccccn1)C1(c2cc(C(F)(F)F)ccn2)CCC1                 21
2  OC(c1ccccn1)C1(c2ccc(OC(F)(F)F)cc2)CC(F)(F)C1 (stereo not drawn)                 75
3  CC1(O)CC(c2ccc(C(F)(F)F)cc2)(C(O)c2ccccn2)C1 (single isomer, unassigned) [Example 232]                 80
4  Cn1c(C2(C(O)c3ccccn3)CCC2)nc2ccccc21 (stereo not drawn)                 67

(I) O=C1CC(c2cc(C(F)(F)F)ccn2)([C@@H](O)c2ccccn2)C1
(II) OC(c1ccccn1)C1(c2ccccc2F)CCC1 (stereo not drawn)
(III) OC(c1ccccn1)C1(c2cccc(C(F)(F)F)c2)CC(F)(F)C1 (stereo not drawn)
(IV) OC(c1ccccn1)C1(c2cccc(OC(F)(F)F)c2)CCC1 (stereo not drawn)
QUERY: Parameters: sort_field (HUMAN MICROSOMAL STABILITY (% REMAINING AFTER 30 MINUTES)), sort_dir (desc). Would you mind listing the labels in the order asked for?
RESULT: I, III, IV, II
(I: 83%, III: 24%, IV: 0.72%, II: 0.38%)
